study.target: SHP2 protein (Homo sapiens)
Sequence (Q06124 whole entry): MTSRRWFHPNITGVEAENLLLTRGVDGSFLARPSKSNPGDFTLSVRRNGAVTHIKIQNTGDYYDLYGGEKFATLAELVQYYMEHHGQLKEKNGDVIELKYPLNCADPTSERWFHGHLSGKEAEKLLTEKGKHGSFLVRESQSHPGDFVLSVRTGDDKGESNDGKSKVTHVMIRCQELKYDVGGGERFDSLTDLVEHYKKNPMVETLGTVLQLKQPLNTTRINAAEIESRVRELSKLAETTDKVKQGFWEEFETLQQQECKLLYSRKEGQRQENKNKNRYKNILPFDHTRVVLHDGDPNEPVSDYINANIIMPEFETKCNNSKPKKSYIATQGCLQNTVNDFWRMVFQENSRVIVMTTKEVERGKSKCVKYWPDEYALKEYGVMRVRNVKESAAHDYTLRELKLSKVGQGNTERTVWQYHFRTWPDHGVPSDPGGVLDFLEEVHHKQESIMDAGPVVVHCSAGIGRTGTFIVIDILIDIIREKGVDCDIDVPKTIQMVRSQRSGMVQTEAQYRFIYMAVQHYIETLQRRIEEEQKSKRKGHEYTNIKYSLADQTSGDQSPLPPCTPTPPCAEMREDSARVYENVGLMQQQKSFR
assay.info: Measurement of SHP2 protein degradation in MV-4-11 cells (western blotting)
Type: cell-based
Parameters: endogenous in cells
run.parameters: 0.1 μM, harvested after 24 hours
parameter: SHP2% degradation (%)
API: value field is a number in %; no unit string.

Cc1ncsc1-c1ccc(CNC(=O)[C@@H]2C[C@@H](O)CN2C(=O)[C@@H](NC(=O)C2(F)CC2)C(C)(C)C)c(O[C@H]2CC[C@H](C(=O)N3CC(Nc4cccc(Sc5cnc(N6CCC7(CC6)Cc6ccccc6[C@H]7N)cn5)c4Cl)C3)CC2)c1: 85.1

Below: the item to evaluate.
*Q* State its SHP2% degradation on SHP2 protein (Homo sapiens): `CC(=O)N[C@H](C(=O)N1C[C@H](O)C[C@H]1C(=O)NCc1ccc(-c2scnc2C)cc1OC1CCN(C(=O)[C@H]2C[C@@H](Nc3nccc(Sc4cnc(N5CCC(C)(CN)CC5)cn4)c3Cl)C2)CC1)C(C)(C)C`
*A* 99.8

Entry source: patent US20260144788A1
